tested system: T1, VLP-hCLDN6 (human) (UniProt P56747)
T1 sequence: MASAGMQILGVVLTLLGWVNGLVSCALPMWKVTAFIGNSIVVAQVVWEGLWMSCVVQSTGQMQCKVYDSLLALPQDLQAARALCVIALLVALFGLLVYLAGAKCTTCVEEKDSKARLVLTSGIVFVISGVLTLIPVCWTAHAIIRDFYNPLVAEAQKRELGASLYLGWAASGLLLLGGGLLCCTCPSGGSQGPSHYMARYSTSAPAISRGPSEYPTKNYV
assay explanation: ELISA, coated VLP-hCLDN6, 10 ul antibody sample, HRP-Protein A
Would you kindly list OD450 for each of these binders?

So for humanized antibody hAb-15 (antibody, V domains shown) VH: EVKLVESGGGLVQPGGSLRLSCAASGFTFNSYTMSWVRQAPGKRLEWVVTISSGGGRTYYPDSVKGRFTISRDNAKNTLYLQMSSLRAEDTAVYYCIRGDYRYDGFAYWGQGTLVTVSS VL: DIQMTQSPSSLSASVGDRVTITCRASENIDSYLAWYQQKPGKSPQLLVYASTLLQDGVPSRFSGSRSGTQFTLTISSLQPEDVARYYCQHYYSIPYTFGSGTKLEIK , the logged OD450 turned out to be 1.39

So, humanized antibody hAb-12 (antibody, V domains shown) VH: EVKLVESGGGLVKPGGSLRLSCAASGFTFNSYTMSWVRQTPAKRLEWVVTISSGGGRTYYPDSVKGRFTISRDNAKNTLYLQMSSLRAEDTAVYYCIRGDYRYDGFAYWGQGTLVTVSS VL: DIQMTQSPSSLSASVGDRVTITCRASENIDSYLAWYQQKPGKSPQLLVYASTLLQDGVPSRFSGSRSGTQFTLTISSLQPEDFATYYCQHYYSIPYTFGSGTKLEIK ? Its OD450 was 1.36

Lab note: measured OD450 of humanized antibody hAb-25 (antibody, V domains shown) VH: EVKLVESGGGLVKPGGSLRLSCAASGFTFNSYTMSWVRQTPAKRLEWVVTISSGGGRTYYPDSVKGRFTISRDNARNTLYLQMSSLRAEDTAVYYCIRGDYRYDGFAYWGQGTLVTVSS VL: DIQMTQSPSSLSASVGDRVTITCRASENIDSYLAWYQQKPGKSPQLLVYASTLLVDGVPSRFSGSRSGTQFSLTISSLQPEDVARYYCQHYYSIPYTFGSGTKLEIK was 1.69

GET /value?item= humanized antibody hAb-16 (antibody, V domains shown) VH: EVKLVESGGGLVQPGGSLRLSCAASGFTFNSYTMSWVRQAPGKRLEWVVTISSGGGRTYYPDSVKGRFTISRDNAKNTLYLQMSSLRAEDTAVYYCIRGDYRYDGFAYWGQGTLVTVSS VL: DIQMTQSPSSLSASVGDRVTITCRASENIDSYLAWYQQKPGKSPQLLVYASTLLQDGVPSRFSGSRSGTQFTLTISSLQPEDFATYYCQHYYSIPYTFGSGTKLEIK &field=OD450 returns 1.26

Given item humanized antibody hAb-14 (antibody, V domains shown) VH: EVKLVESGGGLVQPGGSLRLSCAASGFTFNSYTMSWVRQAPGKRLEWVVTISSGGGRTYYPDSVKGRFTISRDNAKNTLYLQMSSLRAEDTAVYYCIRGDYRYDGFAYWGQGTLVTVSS VL: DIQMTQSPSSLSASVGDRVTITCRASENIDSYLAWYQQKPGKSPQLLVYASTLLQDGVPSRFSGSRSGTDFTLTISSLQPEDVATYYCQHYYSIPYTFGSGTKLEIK , the value recorded as its OD450 is 0.22

// sample humanized antibody hAb-23 (antibody, V domains shown) VH: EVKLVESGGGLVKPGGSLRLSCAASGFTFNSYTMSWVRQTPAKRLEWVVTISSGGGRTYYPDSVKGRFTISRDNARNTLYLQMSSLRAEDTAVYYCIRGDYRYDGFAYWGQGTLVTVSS VL: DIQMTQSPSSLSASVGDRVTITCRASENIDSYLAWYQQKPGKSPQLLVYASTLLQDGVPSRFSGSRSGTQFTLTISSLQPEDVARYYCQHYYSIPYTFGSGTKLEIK , its OD450 was 1.42

The value of OD450 measured for the binder humanized antibody hAb-22 (antibody, V domains shown) VH: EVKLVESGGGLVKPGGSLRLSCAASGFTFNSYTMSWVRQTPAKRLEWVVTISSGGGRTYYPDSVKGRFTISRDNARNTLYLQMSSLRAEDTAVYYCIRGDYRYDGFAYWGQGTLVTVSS VL: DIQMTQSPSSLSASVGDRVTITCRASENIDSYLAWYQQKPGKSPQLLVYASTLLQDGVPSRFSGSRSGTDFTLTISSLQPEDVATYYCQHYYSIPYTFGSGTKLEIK turned out to be 1.12

# OD450 (binder: humanized antibody hAb-11 (antibody, V domains shown) VH: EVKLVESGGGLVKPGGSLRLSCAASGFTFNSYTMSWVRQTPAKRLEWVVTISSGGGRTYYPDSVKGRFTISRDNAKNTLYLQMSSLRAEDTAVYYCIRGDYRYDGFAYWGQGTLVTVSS VL: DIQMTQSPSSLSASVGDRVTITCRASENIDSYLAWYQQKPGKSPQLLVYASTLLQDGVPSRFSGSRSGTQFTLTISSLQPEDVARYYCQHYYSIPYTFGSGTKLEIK ) is 1.41

Values compiled from patent EP4707304A1.
